Kindly supply the reported folding stability dG unfold values for the records listed here.
Assay comment: folding stability dG unfold from trypsin proteolysis; higher = more stable
Give bare numbers, in kcal/mol.

Polymer sequence: SAGMPPPEEVFVVKVRFDGKELTLVVRVPPGMSAEEVAKKLAEELRKKFGPDIEVEVRRVSREELLEALSAG [r5_583_TrROS_Hall]
folding stability dG unfold [kcal/mol]: 3.66
--
Polymer sequence: SKNYPIRISIFQRNPNGNPQTVTYPIPVDAAKELKDAGFEVKDVDPDSGMIMVKFPMPNYPVYIMISIEDSA [r9_5_TrROS]
folding stability dG unfold [kcal/mol]: 2.75

For each of the sequences below, note its folding stability dG unfold.
1. MKEYLIKIKITITDPNGKKREIEITVLVPAEELTEEQLKELLEKAKELAEKLKEKGYEVKVEVEIIPLEELS [r1_221_TrROS_Hall]
2. SAGSATVTYDPDTNTVTVTLEGPDTTFTISFPNGEKLEVKATVKPLPDGSYKVLLEVYYPDGSKETFELSAG [r14_675_TrMRF]
3. SAGGSAIPGMPIKEIARALQDKFPPGKPPQIKIRNKNGETKTFEPNKTIDDIPMDGVVEIEIEFRPSAGGSA [r15_50_TrROS]

a:
1: 3.83; 2: 4.13; 3: -0.52

Please state, for each entry, its recorded folding stability dG unfold.
1. SAGGSAGGSAGMNITITFPDGTVVEIPDVPPEYADVTPEKLKEEVLKKYPNVNVKVSPNGSAGGSAGGSAGG [r17_42_JUSTAS]
2. SAGGMTIFLPLENKEEVIEKLKKEGYKPVEVKEEGDVVTIKVEKKKDEKKEEITIVFYPPSKPEEPVSAGGS [r8_307_JUSTAS]
3. SAGGSMAKILEIIPEEKKIVVEFEGDPKTFPLDEIEEIRIEPEKGYLTIKVGDKVYTIPLDDPNDFSAGGSA [r2_48_TrMRF]
4. SAGGSAGGMKIKVKFTITKSDPNSDSPVPRVITKEFESLEEAEKEFNKLKNLPSGYTVEVEIVESAGGSAGG [r7_0_JUSTAS]
5. SAGGMGQEELENLPPEVVAGLLAEEALAEAERLGRPNEAVTVEVELGDVPLRIELTADGKIARIEAGSAGGS [r16_431_TrMRF]
6. SAGGSAGGEKGYKLVEITIPVTVYHGNKPYTIPIPIKVKSPEEVEKLKKFIENTSYDPTSGKFSSAGGSAGG [r6_197_TrMRF]

a:
[0.302, 2.77, 0.579, 3.16, -0.548, 0.607]

// for each sequence below, give its folding stability dG unfold
1. SAGGSAGGSAGGMKVEVVDITGPPDLSPDATTTTKHPNGVTSTTTMTDPATRTSTIYTPESAGGSAGGSAGG [r11_362_JUSTAS]
2. SMTITHKIPPDDPEKAEEEIKEKIEKETGLKVEKVEVPEGDGATLVVTIDKEKPVVTAEVVPLLPDGTPVSA [r9_173_JUSTAS]
3. SAGGSAMPADEVVEVREITDPATGKKVTVVRNKETGRYFVRVENPDGETEVFEVPGMTAEELEELASAGGSA [r15_295_TrROS_Hall]
4. SAGGSAGGSAKITITKEDIVSYDEENKTFTIKLKDGSTIKIRVEKVKDGKIKVYDEDTGKPISAGGSAGGSA [r18_418_TrROS_Hall]
5. SAGMEITVPGPFLSQEVFDLPDRPYLVLPTPEGIAVIDLVTGEAVFYPFGTTEPIVVPVPPGEELDLLSAGG [r19_138_TrMRF]

a:
[-0.899, 0.85, 2.33, 1.27, 1.73]

I'm hoping you can list folding stability dG unfold for every sequence here, please.
1. SAGMVIRDPGDGKYIYISPGSGEIEIFNDGKEKKIPFPPGEEMEIEIDPDDGTITITFPNNGRELEIPLSAG [r5_858_TrROS]
2. SAGMVITISSDLSPEEVLATAQALAAELGAKKVEVERDPANPDVVTVTVEFPGLGKTVTVNVLPPELLESAG [r5_912_JUSTAS]
3. SAGGSAGGSAGDGINFTLDIPIEGDFELRDVYLTPLEPENRRAFFLLRYKDGPVLLTLPLSAGGSAGGSAGG [r11_1013_TrMRF]
4. SAAKIYILPGNNVILVRPPLPNGPFGELVIPTKPSELENPEFLKEIVDEIRKAGIPFEATILPPGVPPESAG [r14_60_TrMRF]
5. SMEIVFKGKNYYVPVKIDLDNPKITIETYPDKRNKVFKPLSKETAEKIAKAVEIEVAEKIAKAIAEGKPPSA [r9_368_TrMRF]
6. SAGGSAIRIEPDEDGYIKIEKPSPPGEPASELIEELKDFFPNWEVETHPHPNGRAEIIFRIPPDQFSAGGSA [r15_1047_TrROS]
7. SANPALYQWVTTDVVLPFETEEEALAAVEALAAARAAATGATVTVSVEVERLPDGLRVRVPVTTLVPLLSAG [r14_626_JUSTAS]
8. SAGGSAGGSAGGTVTFFEENEFVIDVPDPLTGRPIRIEVPGDPNKPEEIEARAEELRLSSAGGSAGGSAGGS [r10_379_JUSTAS]

a:
1: 0.598; 2: 1.28; 3: 1.21; 4: 0.426; 5: 0.0537; 6: 0.244; 7: 1.05; 8: 0.187

###

Assay comment: folding stability dG unfold from trypsin proteolysis; higher = more stable
Consider the following sequences; for each one, report its folding stability dG unfold.
One number for each entry, in kcal/mol.

Polymer sequence: SAGGANIHVRMENPGDGKPMSFMIPVKEVREAKQEGKDEIKIPFGGGPMKVEIEPLPDGWVHIRMRMPSAGG [r13_171_TrROS]
folding stability dG unfold (kcal/mol): 0.417

Give folding stability dG unfold for all sequences that follow.
1. SAGGSAGGSEVKTKVTLKREDPGSASTSTVDLPKEEAEKLIKEGKEIKLPSGKKASFTKVVPESAGGSAGGS [r12_432_JUSTAS]
2. SAGGSAGGSGSSTSANAGGIVTSSSTVPLPPDTRPVSVSTSTPSSKPVKTTVLPDKTVTTPLGSAGGSAGGS [r12_994_JUSTAS]

a:
1. -0.195
2. 1.01

// batch mode: one folding stability dG unfold value per listed entry
1. SAGGKNDVKTKTYEIEKDGGKITIEFEKLPDGKYKATVTYPDGKKETLVFDLGEGKEEEFAKEIAKKKSAGG [r13_296_TrMRF]
2. SAGGSAGGSSQEREFTLPDPDGKDIKITMHQNPDGRPRAEIENKDGEPVKEFDSPDDIEDLLKSAGGSAGGS [r20_202_TrROS]
3. SAGGSMPVPYESKNVSPSGVEVSSTTYPYDFQIEKFPGSNPVITRTDPKTGEVTPIGTEEELEKLLKSAGGS [r8_232_JUSTAS]

a:
1.46
-0.273
-0.172

q: I am curious: what folding stability dG unfold value has been reported for SAGGMKPGEKVLVKITLKKEVFKNENGEEVKVEEKEILIELEVDSLEEALEALKKLLPPGAEIEVLPSAGGS [r16_282_TrROS_Hall] ?
a: 3.52

###

Assay comment: folding stability dG unfold from chymotrypsin proteolysis; higher = more stable
Measured parameter: folding stability dG unfold (kcal/mol)
Give bare numbers, in kcal/mol.

These solved cases illustrate the format of a correct answer.
Polymer sequence: SAGGNIQIHYNPDWGVIRITYMFPSPTEAEDFIKKLLPPGYKIEPIEVERNPDGYYQVSIEIRLPKGASAGG [r13_338_TrROS]
Reported result: 3.92
//
Polymer sequence: SAGGSAGGSAGGVRIPPGHWKHRLGFPNGKENEFNIPPGAPIEIPPNADDVKIQEIEPVPSAGGSAGGSAGG [r7_542_TrROS]
Reported result: -0.251
//
Polymer sequence: SAGGSAGGSAGGERVVRFPYTGTLEDVLEAARRLRRLGGVEVGYDPENGVLLARFKGGGLSAGGSAGGSAGG [r7_219_TrMRF]
Reported result: 1.6
//
Polymer sequence: SKPDPVKIEIEQERNPNGQPQHTIKIQDKGKDRKFPIHNMSIDEFDPDDPYIKIRSPGNGQSHTIPPDDLSA [r9_1186_TrROS]
Reported result: 1.22

// batch mode: one folding stability dG unfold value per listed entry
1. SAGKPLTPDEAKELAEELVDAFAEEFARRHGMPPDDMKVIEVEETPDGYIQVTFRMPNMPMKFEIPVKDSAG [r5_565_TrROS]
2. SAGMSEEERKAAEEASKPPVKVETLTVTVLVEVDGKLYLVRATITRVVLPDGSIVTELKIEIIPLEDLSAGG [r19_11_TrROS_Hall]
3. SAGGMSLEHVTEIVETVTHPDGTKTVTIRLSDPAIWAGEDPATAAALAEAVQAEHADEGVAVTVVGAPSAGG [r13_243_JUSTAS]

a:
0.277
4.26
1.05
